MEASURED_TARGET: MC4-R (Homo sapiens, UniProt P32245)
Sequence (P32245 whole entry): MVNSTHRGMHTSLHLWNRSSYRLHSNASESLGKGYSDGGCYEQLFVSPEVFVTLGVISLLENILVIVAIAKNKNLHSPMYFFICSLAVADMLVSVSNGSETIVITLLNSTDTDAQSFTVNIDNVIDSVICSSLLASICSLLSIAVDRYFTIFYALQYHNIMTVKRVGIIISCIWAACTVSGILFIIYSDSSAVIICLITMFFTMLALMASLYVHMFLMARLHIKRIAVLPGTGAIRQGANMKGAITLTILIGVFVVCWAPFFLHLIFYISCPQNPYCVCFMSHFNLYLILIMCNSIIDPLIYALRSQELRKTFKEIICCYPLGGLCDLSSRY
ASSAY_REMARKS: cAMP functional activity assay in HEK-293 cells, normal system
Format: cell-based
Set-up: expressed in transfected cells; host or cells: HEK-293
CONDITION_LABEL: normal receptor density system
MEASURED_PARAMETER: EC50 (nM)

SMILES_RECORD	MEASURED_TARGET	MEASURED_PARAMETER	REPORTED_RESULT
C[C@@H]1CN(C(=O)[C@H](N)Cc2ccc3ccccc3c2)[C@@H](CCCNC(=N)N)CN1C(=O)Cc1ccc2ccccc2c1	MC4-R (Homo sapiens, UniProt P32245)	EC50	42
CC(=O)N[C@H](Cc1ccc2ccccc2c1)C(=O)N1C[C@@H](C)N(C(=O)Cc2ccc3ccccc3c2)C[C@@H]1CCCNC(=N)N	MC4-R (Homo sapiens, UniProt P32245)	EC50	7
CC(=O)N[C@H](Cc1ccc(Cl)cc1C)C(=O)N1C[C@@H](C)N(C(=O)Cc2ccc3ccccc3c2)C[C@@H]1CCCNC(=N)N	MC4-R (Homo sapiens, UniProt P32245)	EC50	3
CC(=O)N[C@H](Cc1ccc(C)cc1C)C(=O)N1C[C@@H](C)N(C(=O)Cc2ccc3ccccc3c2)C[C@@H]1CCCNC(=N)N	MC4-R (Homo sapiens, UniProt P32245)	EC50	9
CCNC(=O)[C@@H]1CCCCNC(=O)C[C@H](NC(C)=O)C(=O)N[C@@H](Cc2c[nH]cn2)C(=O)N[C@H](Cc2ccccc2)C(=O)N[C@@H](CCCNC(=N)N)C(=O)N[C@@H](Cc2c[nH]c3ccccc23)C(=O)N1	MC4-R (Homo sapiens, UniProt P32245)	EC50	3
